Molecular target: Tyrosine-protein kinase ABL2 (Homo sapiens) (UniProt P42684)
Sequence (P42684 whole entry): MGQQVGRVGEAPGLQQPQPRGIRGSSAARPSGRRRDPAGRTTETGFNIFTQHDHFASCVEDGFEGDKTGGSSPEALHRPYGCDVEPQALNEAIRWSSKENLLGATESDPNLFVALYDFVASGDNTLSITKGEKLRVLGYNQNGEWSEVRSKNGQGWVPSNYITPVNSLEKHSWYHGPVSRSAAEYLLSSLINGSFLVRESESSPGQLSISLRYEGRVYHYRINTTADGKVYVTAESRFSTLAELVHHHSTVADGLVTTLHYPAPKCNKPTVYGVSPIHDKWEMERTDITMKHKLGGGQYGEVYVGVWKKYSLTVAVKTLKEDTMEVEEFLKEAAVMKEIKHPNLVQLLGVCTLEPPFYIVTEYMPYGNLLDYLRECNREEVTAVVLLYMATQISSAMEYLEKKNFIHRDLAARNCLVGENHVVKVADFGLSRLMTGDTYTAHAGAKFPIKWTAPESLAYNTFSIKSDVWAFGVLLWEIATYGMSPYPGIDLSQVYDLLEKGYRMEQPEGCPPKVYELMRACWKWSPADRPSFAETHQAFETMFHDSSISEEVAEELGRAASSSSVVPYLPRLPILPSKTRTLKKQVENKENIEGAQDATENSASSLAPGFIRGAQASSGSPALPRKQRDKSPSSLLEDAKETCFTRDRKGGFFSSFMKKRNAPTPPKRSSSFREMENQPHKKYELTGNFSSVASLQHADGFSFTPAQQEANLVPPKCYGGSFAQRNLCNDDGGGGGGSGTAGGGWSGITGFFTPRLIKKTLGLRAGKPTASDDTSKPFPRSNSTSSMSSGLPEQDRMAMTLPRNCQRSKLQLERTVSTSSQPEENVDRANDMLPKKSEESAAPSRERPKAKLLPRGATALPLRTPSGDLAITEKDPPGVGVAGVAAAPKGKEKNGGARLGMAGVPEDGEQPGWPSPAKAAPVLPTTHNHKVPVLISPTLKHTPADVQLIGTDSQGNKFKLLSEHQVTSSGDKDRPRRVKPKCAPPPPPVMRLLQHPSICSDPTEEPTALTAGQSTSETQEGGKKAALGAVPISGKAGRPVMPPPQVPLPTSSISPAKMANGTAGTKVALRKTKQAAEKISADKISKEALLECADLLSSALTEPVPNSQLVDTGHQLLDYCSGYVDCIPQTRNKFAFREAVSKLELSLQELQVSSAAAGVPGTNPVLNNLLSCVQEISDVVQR
Assay: Inhibition of Abl2 at 20 uM after 1 hr by luminescence assay
measurement.name: inhibition (%)
Numbers only, in %.

In [3]: df
Out[3]:
                         structure_notation  measurement_name  unit_symbol  test_result
0  CN[C@@H]1C[C@H]2O[C@@](C)([C@@H]1OC)n1c3ccccc3c3c4c(c5c6ccccc6n2c5c31)C(=O)NC4        inhibition            %         90.2

// batch mode: one inhibition value per listed entry
1. O=C(CN[C@H]1CCN(S(=O)(=O)Cc2ccccc2)C1)N1CCN(Cc2cccc(C(F)(F)F)c2)CC1
2. Cc1cc(C)c(CN2CCN(C(=O)CN[C@H]3CCN(S(=O)(=O)Cc4ccccc4)C3)CC2)c(C)c1
3. O=C(CN[C@H]1CCN(S(=O)(=O)Cc2ccccc2)C1)N1CCN(Cc2ccc(Cl)cc2Cl)CC1

Reply |
1: 4.49; 2: 1.39; 3: 4.92

----------
Provide the recorded inhibition for the entries that follow.
Biological target: Phosphatidylinositol 4,5-bisphosphate 3-kinase catalytic subunit alpha isoform (Homo sapiens)
Assay: Inhibition of PI3Kalpha at 20 uM after 1 hr by luminescence assay
Numbers only, in %.

For orientation, consider the following solved cases.
>>> df
                         structure_notation  unit_symbol  test_result
0  O=C(CN[C@H]1CCN(S(=O)(=O)Cc2ccccc2)C1)N1CCN(Cc2cccc(C(F)(F)F)c2)CC1            %         12.1
1  Cc1cc(C)c(CN2CCN(C(=O)CN[C@H]3CCN(S(=O)(=O)Cc4ccccc4)C3)CC2)c(C)c1            %         13.5

Your task in this section: give inhibition for each listed record.
1. Oc1cccc(-c2nc(N3CCOCC3)c3oc4ncccc4c3n2)c1
2. O=C(CN[C@H]1CCN(S(=O)(=O)Cc2ccccc2)C1)N1CCN(Cc2ccc(Cl)cc2Cl)CC1

Reply |
1. 98.1
2. 16.4
